Plant response rating, Foxtail, Giant listing for selected compounds.
# System: giant foxtail
# assay-remarks: Test C pre-/postemergence herbicide test
# Assay type: in vivo, Setaria faberi
# measurement-conditions: 250 g ai/ha; scale 0 to 100 (0 no effect, 100 complete control); visual, 12 to 14 days; preemergence

CCn1nc(C(C)(C)C)cc1C(=O)Nc1cccc(C(C)=NO)c1 [Compound 108]    100
CC(=NO)c1cccc(NC(=O)c2cc(C(C)(C)C)nn2C)c1 [Compound 102]    80
CCN(CC)C(=O)c1cccc(NC(=O)c2cc(C(C)(C)C)nn2CC)n1 [Compound 145]    50

Turning now to a further compound:
// Plant response rating, Foxtail, Giant (giant foxtail) for CCCCn1nc(C(C)(C)C)cc1C(=O)Nc1cccc(C(=O)NCC)c1 [Compound 41] = 30
